Test system: P. aeruginosa FADDI-PA070, PmxR
Type: cell-based, Pseudomonas aeruginosa
experimental-conditions: polymyxin resistant clinical isolate; MHB, 5 × 10^5 CFU/mL, 18 h at 37 °C
Bridge positions count the residues as written; N and C are the ends. Square brackets hold non-standard residues; d marks the D form. Peptide text beside a SMILES is read from it. * marks the point of attachment. dDab = NCC[C@@H](N)C(=O)O; Octanoyl = CCCCCCCC(=O)*; Dab = NCC[C@H](N)C(=O)O

{"compound": "CC[C@H](C)CCCCC(=O)N[C@@H](CCN)C(=O)N[C@H](C(=O)N[C@@H](CCN)C(=O)N[C@H]1CCNC(=O)[C@H]([C@@H](C)O)NC(=O)[C@H](CCN)NC(=O)[C@H](CCN)NC(=O)[C@H](CC(C)C)NC(=O)[C@@H](Cc2ccccc2)NC(=O)[C@H](CCN)NC1=O)[C@@H](C)O", "MIC P. aeruginosa FADDI-PA070, PmxR": "32 µg/mL"}
{"compound": "CCCCCCCC(=O)N[C@H](C(=O)NCC(=O)N[C@H]1CCNC(=O)[C@H]([C@@H](C)O)NC(=O)[C@H](CCN)NC(=O)[C@H](CCN)NC(=O)[C@H](CC(C)C)NC(=O)[C@@H](Cc2ccccc2)NC(=O)[C@H](CCN)NC1=O)[C@@H](C)O [Compound 39] (Octanoyl-TG[Dab][Dab][dF]L[Dab][Dab]T; lactam 3-C)", "MIC P. aeruginosa FADDI-PA070, PmxR": ">32 µg/mL"}
{"compound": "CCCCCCCC(=O)N[C@H](CCN)C(=O)N[C@H](C(=O)NCC(=O)N[C@H]1CCNC(=O)[C@H]([C@@H](C)O)NC(=O)[C@H](CCN)NC(=O)[C@H](CCN)NC(=O)[C@H](CC(C)C)NC(=O)[C@@H](Cc2ccccc2)NC(=O)[C@H](CCN)NC1=O)[C@@H](C)O [Compound 40] (Octanoyl-[dDab]TG[Dab][Dab][dF]L[Dab][Dab]T; lactam 4-C)", "MIC P. aeruginosa FADDI-PA070, PmxR": ">32 µg/mL"}
